// data source = patent US7807713B2

MEASURED_ON: hAR(T877A) (Homo sapiens, UniProt P10275, T878A)
Sequence (P10275 whole entry T878A): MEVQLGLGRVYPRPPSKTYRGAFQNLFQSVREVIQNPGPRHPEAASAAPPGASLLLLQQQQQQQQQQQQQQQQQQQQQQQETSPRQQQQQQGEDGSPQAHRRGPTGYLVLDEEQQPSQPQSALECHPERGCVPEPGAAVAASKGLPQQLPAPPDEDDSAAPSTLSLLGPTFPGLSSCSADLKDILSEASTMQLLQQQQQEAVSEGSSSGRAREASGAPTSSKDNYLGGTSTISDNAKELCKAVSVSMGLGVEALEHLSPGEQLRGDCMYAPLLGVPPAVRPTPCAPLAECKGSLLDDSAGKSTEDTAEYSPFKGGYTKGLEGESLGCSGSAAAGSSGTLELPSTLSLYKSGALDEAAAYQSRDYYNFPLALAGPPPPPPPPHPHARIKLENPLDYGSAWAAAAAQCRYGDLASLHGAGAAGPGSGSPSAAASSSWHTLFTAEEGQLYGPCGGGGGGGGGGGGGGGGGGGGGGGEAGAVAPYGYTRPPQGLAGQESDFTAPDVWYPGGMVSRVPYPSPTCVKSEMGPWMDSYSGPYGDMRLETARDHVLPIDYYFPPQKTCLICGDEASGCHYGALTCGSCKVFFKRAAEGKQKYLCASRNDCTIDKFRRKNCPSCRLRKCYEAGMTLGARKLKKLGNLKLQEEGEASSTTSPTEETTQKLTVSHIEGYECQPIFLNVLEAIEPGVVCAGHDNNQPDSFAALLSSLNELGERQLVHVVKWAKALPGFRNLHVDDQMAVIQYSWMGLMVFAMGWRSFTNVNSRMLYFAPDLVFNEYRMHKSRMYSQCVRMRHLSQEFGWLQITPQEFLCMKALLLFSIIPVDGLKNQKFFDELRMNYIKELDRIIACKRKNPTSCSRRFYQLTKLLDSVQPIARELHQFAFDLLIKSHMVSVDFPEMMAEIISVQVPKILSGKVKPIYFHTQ
ASSAY_EXPLANATION: Transcription assay (ARE-luciferase reporter, CV-1 cells), mutant androgen receptor T877A
Below: a set of entries, each annotated with reported EC50.
Express the result in nM but write the number alone.

CC(O)(CS(=O)(=O)c1ccc(Br)c2ccccc12)C(=O)Nc1ccc(C#N)c(C(F)(F)F)c1 (centres unmarked)
426

Recorded EC50 (compound CC(O)(CS(=O)(=O)c1ccccc1Cc1ccccc1O)C(=O)Nc1ccc(C#N)c(C(F)(F)F)c1 (centres unmarked) ): 1.9

###

MEASURED_ON: hAR(wt) (Homo sapiens, UniProt P10275)
Sequence (P10275 whole entry): as the sequence (P10275 whole entry T878A) above, with A878T counted along it
ASSAY_EXPLANATION: Transcription assay (ARE-luciferase reporter, CV-1 cells), wild-type androgen receptor
MEASUREMENT_NAME: EC50
Answer with the figure and its unit, nothing else.

Field EC50 (entry CC(O)(CS(=O)(=O)c1ccccc1Cc1cccc(O)c1)C(=O)Nc1ccc(C#N)c(C(F)(F)F)c1 (stereo not shown) ) reads 1.8 nM
